test system: HeLa cells; assay: Compound screen by flow cytometry: HeLa cell count as surrogate readout of cell viability (z-scoreHeLa); type: cell-based, human; details: PKIS compound screen, HeLa cell count, replicate 2; further: test concentration or dose not given here

MOLECULE	z-scoreHeLa rep 2
COC(=O)c1cccc(NC(=O)NC2CCN(c3ccnc(Nc4ccc(OC)cc4)n3)C2)c1 (stereo not shown) [GSK1379746A]	-1.18
c1ccc(-c2cc3ccncc3cc2OC2CCNCC2)cc1 [GSK1122999D]	-1.24
CCCNC(=O)Nc1ccc(N(C)c2ccnc(NC3CC3)n2)cc1 [GW818933X]	0.38
COC(=O)c1cccc(NC(=O)NC2CCN(c3ccnc(NCc4ccc(F)cc4)n3)CC2)c1 [GSK1379860A]	-2.56
OCCCNc1nccc(-c2c(-c3ccc(F)cc3)nn3cc(C(F)(F)F)ccc23)n1 [GW569293E]	1.01
CCS(=O)(=O)c1ccc(OC)c(Nc2ncc(-c3cccc(-c4ccccc4F)c3)o2)c1 [GW678313X]	-0.61
Cc1cn2c(=O)cc(N3CCOCC3)nc2n1Cc1cccc(Cl)c1Cl [GSK2334006A]	1.33
COC(=O)Nc1nc2ccc(Oc3ccc(NC(=O)Nc4cc(C(F)(F)F)ccc4F)cc3)cc2n1C [GW692089A]	0.12
COc1cc(Nc2nccc(N3CCC(NC(=O)c4cc5ccccc5s4)C3)n2)cc(OC)c1OC (stereo not shown) [GSK1379760A]	0.28
Cn1cncc1-c1cc2c(Nc3ccc(OCc4ccccc4)cc3)ncnc2cn1 [GW281179X]	-2.45
CS(=O)(=O)CCNCc1ccc(-c2ccc3ncnc(Nc4ccc(OCc5ccccc5)c(Cl)c4)c3c2)o1 [GW574783B]	0.14
O=c1cc(N2CCOCC2)nc2n(Cc3cccc(Cl)c3Cl)c(C3CC3)nn12 [GSK2358994A]	1.69
Cc1ccc(O)cc1Nc1ccnc2cc(-c3ccc(CN4CCCCC4)o3)ccc12 [GW557777X]	0.52
CC(C)S(=O)(=O)N1CCN(Cc2ccc3c(c2)nc(NC(=O)c2ccsc2)n3C[C@H](O)c2ccccc2)CC1 [GW635815X]	0.27
O=C(Nc1n[nH]c2nc(-c3ccccc3)c(Br)cc12)C1CC1 [SB-708998]	0.63
Fc1cc(Cl)ccc1Nc1ccnc2cc(-c3ccc(CN4CCOCC4)o3)ccc12 [GW560109X]	0.037

---

test system: HeLa cells; assay: Compound screen by flow cytometry: HeLa cell count as surrogate readout of cell viability (z-scoreHeLa); type: cell-based, human; conditions: PKIS compound screen, replicate 3; further: test concentration or dose not given here

COMPOUND	z-scoreHeLa rep 3
COc1ccc2ncnc(Nc3ccc(OCc4ccccc4)cc3)c2c1 [GI261520A]	2.78
Cc1cc(Cl)cc2c1NC(=O)C2=NNc1ccc(S(N)(=O)=O)cc1 [GW279320X]	1.47
c1ccc(-c2cc3ccncc3cc2OC2CCNCC2)cc1 [GSK1122999D]	0.45
COC(=O)c1ccc2c(c1)C(=Cc1cc(Br)c(O)c(Br)c1)C(=O)N2 [GW405841X]	1.84
CS(=O)(=O)CCNCc1ccc(-c2ccc3ncnc(Nc4ccc(OCc5ccccc5)c(Cl)c4)c3c2)o1 [GW574783B]	2.13
c1ccc(Cc2nc3ccc(Nc4ncnc5ccccc45)cc3[nH]2)cc1 [GR269666A]	0.42
CCCN(CCS(C)(=O)=O)Cc1ccc(-c2ccc3ncnc(Nc4ccc(OCc5cccc(F)c5)c(Cl)c4)c3c2)o1 [GW621823A]	1.02
CCn1c(-c2nonc2N)nc2c(C#CC(C)(C)O)nc(OCCNC)cc21 [GSK949675A]	1.70
O=S(=O)(CCNCc1ccc(-c2ccc3ncnc(Nc4ccc(OCc5cccc(F)c5)c(Cl)c4)c3c2)o1)c1ccccc1 [GW633459A]	1.40
Cc1nnc(-c2ccc(C)c(-c3ccc(C(=O)NCc4ccc(Cl)cc4)cc3)c2)o1 [GW708893X]	0.31
Cn1cc(-c2ccc3c(c2)CCN3C(=O)Cc2cccc(F)c2)c2c(N)ncnc21 [GSK2603358A]	1.79
CN(C)c1cc2c(Nc3ccc4c(cnn4Cc4ccccc4)c3)ncnc2cn1 [GW282974X]	2.01
COc1cccc(-n2ncc3c(N/N=C/c4ccncc4)ncnc32)c1 [GW784752X]	0.60
Cn1cc(-c2ccc3c(c2)CCN3C(=O)Cc2ccccc2Cl)c2c(N)ncnc21 [GSK2608885A]	-0.13
COc1ccc(Nc2nccc(N3CCC(NC(=O)Nc4cccc(OC)c4)C3)n2)cc1 (stereo not drawn) [GSK1379742A]	2.36
O=C(Nc1n[nH]c2cc(-c3ccccc3)ccc12)C1CC1	0.31
CC(C)c1nc(-c2cccc(NS(=O)(=O)c3ccccc3)c2)c(-c2ccnc(Nc3ccc4c(c3)CN(C)CC4)n2)s1 [GSK1649598A]	-0.73
COC(=O)c1cccc(NC(=O)NC2CCN(c3ccnc(NCc4ccc(F)cc4)n3)CC2)c1 [GSK1379860A]	-0.89
